# T1/2 annotations
- MEASUREMENT TARGET: T1, Peptide A (human PAR-2), N-terminal biotinylated (Human, N-terminal biotin via G4S linker)
- T1 construct: also called Peptide A N-Term
- T1 peptide: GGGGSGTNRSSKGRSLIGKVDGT
- MEASUREMENT PROTOCOL: SPR, peptide immobilized
ENDPOINT: T1/2 (min)

>>> result_number("H4H588N (antibody, human IgG4, V domains shown, also called H2M588N variable regions) VH: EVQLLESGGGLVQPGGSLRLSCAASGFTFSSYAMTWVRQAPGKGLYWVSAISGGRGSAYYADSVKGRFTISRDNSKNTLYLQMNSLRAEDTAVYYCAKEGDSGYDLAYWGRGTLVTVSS VL: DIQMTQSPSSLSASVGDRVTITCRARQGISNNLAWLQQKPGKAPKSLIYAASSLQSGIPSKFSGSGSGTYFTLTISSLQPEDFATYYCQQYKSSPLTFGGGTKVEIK")
189
>>> result_number("H4H579P (antibody, human IgG4, V domains shown, also called H1H579P variable regions) VH: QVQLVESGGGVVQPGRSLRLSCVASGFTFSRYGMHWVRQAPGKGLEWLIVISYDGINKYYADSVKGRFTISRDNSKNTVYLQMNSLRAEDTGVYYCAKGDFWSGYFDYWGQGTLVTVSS VL: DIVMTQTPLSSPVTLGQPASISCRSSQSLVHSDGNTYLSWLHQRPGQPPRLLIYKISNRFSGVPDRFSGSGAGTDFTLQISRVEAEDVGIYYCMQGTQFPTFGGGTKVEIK")
46
>>> result_number("H4H585P (antibody, human IgG4, V domains shown, also called H1H585P variable regions) VH: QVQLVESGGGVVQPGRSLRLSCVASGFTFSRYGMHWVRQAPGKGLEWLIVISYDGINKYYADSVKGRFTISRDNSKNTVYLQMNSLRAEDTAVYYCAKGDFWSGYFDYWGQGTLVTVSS VL: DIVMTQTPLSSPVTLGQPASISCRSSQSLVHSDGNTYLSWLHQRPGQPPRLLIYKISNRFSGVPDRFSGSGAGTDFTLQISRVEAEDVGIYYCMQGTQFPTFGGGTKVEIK")
48

Each recorded value in this set is attributed to patent US20110059095A1.
